B1: 5KPH (parent)
chain: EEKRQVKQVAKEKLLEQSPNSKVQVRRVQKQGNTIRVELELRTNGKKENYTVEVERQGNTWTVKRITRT

- Variants of: B1
- assay.info: folding stability dG (cDNA display proteolysis); higher = more stable
- settings: PBS, room temperature
value.type: folding stability dG (kcal/mol)
Report as a plain number; the unit kcal/mol is understood.

Example cases with answers are listed next.
mutation.key | reported.measurement
N33C | 3.22
V23S | 2.02
K47C | 3.64
T67N | 3.32

Recorded result, L39C , folding stability dG: 3.88

Recorded result, K22R , folding stability dG: 3.85
